pKd data for VC0430 (VcGluP) wildtype (Vibrio cholerae, UniProt Q9KUT5) follow.
Convention used: pKd is expressed as -log10 of the molar concentration.

Examples from the recorded data:
## Input Could you tell me which pKd is on file for N[C@H](CCC(=O)O)C(=O)O [D-glutamate] ?
## Output 4.61

## Input Query O=C(O)[C@@H]1CCC(O)=N1 [L-pyroglutamate] next
## Output 4.30

## Input Now this one: `NC(=O)CC[C@H](N)C(=O)O`
## Output 4.96

Read the next record carefully.
## Input Quick one: pKd of N[C@@H](CCC(=O)O)C(=O)O [L-glutamate] ?
## Output 7.19

###

Biological target: VC0430 (VcGluP) wildtype (Vibrio cholerae, UniProt Q9KUT5)
Type: binding
Recorded measurements of Tm Replicate 1, one per entry
# output: bare number, implied unit °C

## Input Enter reported Tm Replicate 1 observed with VC0430 (VcGluP) wildtype (Vibrio cholerae, UniProt Q9KUT5) for N[C@@H](CC(=O)O)C(=O)O [L-aspartate]
## Output 47.72

With those in mind, consider the next compound.
## Input What value of Tm Replicate 1 on VC0430 (VcGluP) wildtype (Vibrio cholerae, UniProt Q9KUT5) does O=C(O)CCC(=O)C(=O)O [α-ketoglutarate] have?
## Output 50.71

###

Listed here are compounds together with their documented Tm Replicate 3.
Target: VC0430 (VcGluP) wildtype (Vibrio cholerae, UniProt Q9KUT5)
Type: binding

## Input Form entry - test system: VC0430 (VcGluP) wildtype (Vibrio cholerae, UniProt Q9KUT5); read-out: Tm Replicate 3; compound: O=C(O)CCC(=O)C(=O)O [α-ketoglutarate]
## Output 45.74 °C

## Input Same question, N[C@H](CCC(=O)O)C(=O)O [D-glutamate] this time
## Output 58.65 °C

## Input Input O=C(O)CCCCC(=O)O [adipate]
## Output 44.74 °C

## Input Param item: N[C@@H](CC(=O)O)C(=O)O [L-aspartate]
## Output 47.73 °C

Attention now shifts to the item below.
## Input Can you look up Tm Replicate 3 on VC0430 (VcGluP) wildtype (Vibrio cholerae, UniProt Q9KUT5) for `NCCCC[C@H](N)C(=O)O` ?
## Output 44.74 °C

###

Biological target: VC0430 (VcGluP) wildtype (Vibrio cholerae, UniProt Q9KUT5)
Type: binding
# Tm Replicate 2 annotations
Field: numeric (°C). Do not append units.

Example results:
## Input Please tell me: Tm Replicate 2 of N[C@@H](CC(=O)O)C(=O)O [L-aspartate] , system VC0430 (VcGluP) wildtype (Vibrio cholerae, UniProt Q9KUT5)?
## Output 45.74

## Input And what about the compound O=C(O)CCC(=O)C(=O)O [α-ketoglutarate] ?
## Output 45.74

## Input Thanks! And O=C(O)CCCCC(=O)O [adipate] ?
## Output 45.74

## Input # repeat for `NCCCC[C@H](N)C(=O)O`
## Output 44.74

Now take the following compound into account.
## Input # value lookup — system VC0430 (VcGluP) wildtype (Vibrio cholerae, UniProt Q9KUT5), readout Tm Replicate 2, item N[C@H](CCC(=O)O)C(=O)O [D-glutamate]
## Output 58.65

###

Target: VC0430 (VcGluP) wildtype (Vibrio cholerae, UniProt Q9KUT5)
Assay type: binding
# reported Average Tm; entries follow
The reply must contain the numeric value and, after it, the unit.

# annotated cases, reported Average Tm shown
## Input Any idea what Average Tm was measured for O=C(O)CCCCC(=O)O [adipate] ?
## Output 44.74 °C

## Input # iterate: O=C(O)CCC(=O)C(=O)O [α-ketoglutarate]
## Output 47.39 °C

## Input Ok, now N[C@H](CCC(=O)O)C(=O)O [D-glutamate]
## Output 58.65 °C

## Input Let us now turn to `NCCCC[C@H](N)C(=O)O`
## Output 44.41 °C

# ---- query compound ----
## Input Bench note: what Average Tm did N[C@@H](CC(=O)O)C(=O)O [L-aspartate] show?
## Output 47.06 °C

###

Listed compounds paired with reported Tm Replicate 1
Target: VC0430 (VcGluP) wildtype (Vibrio cholerae, UniProt Q9KUT5)
Assay type: binding
State the answer as a number, implicitly in °C.

## Input For VC0430 (VcGluP) wildtype (Vibrio cholerae, UniProt Q9KUT5), provide Tm Replicate 1 of N[C@H](CCC(=O)O)C(=O)O [D-glutamate] please.
## Output 58.65

## Input Quick one: NCCCC[C@H](N)C(=O)O [L-lysine]
## Output 43.75

As a next step, examine the compound that follows.
## Input Lab note: need Tm Replicate 1 for O=C(O)CCCCC(=O)O [adipate] on VC0430 (VcGluP) wildtype (Vibrio cholerae, UniProt Q9KUT5), anyone have it?
## Output 43.75
